These data points were gathered from ChEMBL document CHEMBL1132478.

- test target: UniProt P35372
- Sequence (P35372 whole entry): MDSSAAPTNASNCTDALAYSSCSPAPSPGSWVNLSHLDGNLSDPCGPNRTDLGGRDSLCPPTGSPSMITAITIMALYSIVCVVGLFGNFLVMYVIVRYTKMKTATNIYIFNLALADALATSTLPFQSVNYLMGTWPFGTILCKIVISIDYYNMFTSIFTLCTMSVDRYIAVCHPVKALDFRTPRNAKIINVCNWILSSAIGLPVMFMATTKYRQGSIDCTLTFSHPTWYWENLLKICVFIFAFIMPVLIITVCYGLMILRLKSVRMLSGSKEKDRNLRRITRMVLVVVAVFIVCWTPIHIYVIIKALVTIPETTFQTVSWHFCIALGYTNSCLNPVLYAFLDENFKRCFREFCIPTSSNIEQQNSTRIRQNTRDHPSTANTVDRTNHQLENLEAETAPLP
assay endpoint: Ki

Qu. # return Ki for COC(=O)C1=C(C)NC(=O)N(C(=O)NCCCN2CCN(c3ccccc3C(N)=O)CC2)C1c1ccc(F)c(F)c1 (stereo unspecified) , test system: UniProt P35372
Ans. > 30 µM

###

- test target: Alpha-1B adrenergic receptor (Homo sapiens, UniProt P35368)
- Sequence (P35368 whole entry): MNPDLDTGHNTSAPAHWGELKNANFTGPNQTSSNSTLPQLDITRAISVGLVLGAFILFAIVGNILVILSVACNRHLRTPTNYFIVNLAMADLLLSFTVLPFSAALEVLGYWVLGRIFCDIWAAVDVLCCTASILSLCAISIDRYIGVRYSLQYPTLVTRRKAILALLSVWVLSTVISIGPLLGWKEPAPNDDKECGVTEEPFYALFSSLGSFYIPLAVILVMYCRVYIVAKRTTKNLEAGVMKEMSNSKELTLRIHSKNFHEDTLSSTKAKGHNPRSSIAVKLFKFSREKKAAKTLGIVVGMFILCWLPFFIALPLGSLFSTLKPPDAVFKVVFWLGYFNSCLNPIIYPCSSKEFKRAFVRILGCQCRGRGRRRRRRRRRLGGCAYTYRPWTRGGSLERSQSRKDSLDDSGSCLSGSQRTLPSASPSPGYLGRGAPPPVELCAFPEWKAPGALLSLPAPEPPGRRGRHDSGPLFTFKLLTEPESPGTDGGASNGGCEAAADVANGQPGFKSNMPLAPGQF
- test name: In vitro binding affinity against Alpha-1B adrenergic receptor at recombinant human receptor.
Response field label: string, one of met (Ki strictly below 30 nM) or not met.

- molecule: "COC(=O)C1=C(C)NC(=O)N(C(=O)NCCCN2CCN(c3ccc(OC)cc3)CC2)C1c1ccc(F)c(F)c1 (stereo unspecified)"
  class: "not met"

Qu. is_below(Ki, 30 nM) for COC(=O)C1=C(C)NC(=O)N(C(=O)NCCCN2CCN(c3ccccc3O)CC2)C1c1ccc(F)c(F)c1 (stereo unspecified) ?
Ans. met

Qu. is_below(Ki, 30 nM) for CCC1=C(C(N)=O)C(c2ccc(F)cc2F)N(C(=O)NCCCN2CCN(c3ccccc3C(N)=O)CC2)C(=O)N1 (stereo unspecified) ?
Ans. not met

Qu. is_below(Ki, 30 nM) for COC(=O)C1=C(C)NC(=O)N(C(=O)NCCCN2CCN(c3ccccc3C#N)CC2)C1c1ccc(F)c(F)c1 (stereo unspecified) ?
Ans. met

Qu. is_below(Ki, 30 nM) for CCOc1ccccc1N1CCN(CCCNC(=O)N2C(=O)NC(C)=C(C(=O)OC)C2c2ccc(F)c(F)c2)CC1 (stereo unspecified) ?
Ans. met

Qu. is_below(Ki, 30 nM) for CC(=O)C1=C(C)NC(=O)N(C(=O)NCCCN2CCN(c3ccccc3C(N)=O)CC2)C1c1ccc(F)c(F)c1 (stereo unspecified) ?
Ans. not met

Qu. is_below(Ki, 30 nM) for COCC1=C(C(=O)OC)C(c2cc(F)c(F)cc2F)N(C(=O)NCCCN2CCN(c3ccccc3C(N)=O)CC2)C(=O)N1 (stereo unspecified) ?
Ans. not met

Qu. is_below(Ki, 30 nM) for COCC1=C(C(=O)OC)C(c2ccc(F)c(F)c2)N(C(=O)NCCCN2CCN(c3ccccc3C(N)=O)CC2)C(=O)N1 (stereo unspecified) ?
Ans. not met

Qu. is_below(Ki, 30 nM) for CCC1=C(C(=O)OC)C(c2ccc(F)cc2F)N(C(=O)NCCCN2CCN(c3ccccc3C(N)=O)CC2)C(=O)N1 (stereo unspecified) ?
Ans. not met

Qu. is_below(Ki, 30 nM) for COC(=O)C1=C(C)NC(=O)N(C(=O)NCCCN2CCN(c3ccccc3C(N)=O)CC2)C1c1cc(F)c(F)c(F)c1 (stereo unspecified) ?
Ans. not met

###

Reported pKi values for a set of compounds
- test target: Alpha-1B adrenergic receptor (Homo sapiens, UniProt P35368)
- test name: In vitro binding affinity against Alpha-1B adrenergic receptor at recombinant human receptor.
On this scale, pKi is minus log10 of a concentration expressed in M (mol/L).

In the examples that follow, each entry is paired with its recorded pKi.
- compound: "COC(=O)C1=C(C)NC(=O)N(C(=O)NCCCN2CCN(c3cccc(Cl)c3)CC2)C1c1ccc(F)c(F)c1 (centres undefined)"
  pKi: 8.08
- compound: "COC(=O)C1=C(C)NC(=O)N(C(=O)NCCCN2CCN(c3ccc(OC)cc3C)CC2)C1c1ccc(F)c(F)c1 (centres undefined)"
  pKi: 6.29
- compound: "COC(=O)C1=C(C)NC(=O)N(C(=O)NCCCN2CCN(c3ccccc3C(=O)OC)CC2)C1c1ccc(F)c(F)c1 (centres undefined)"
  pKi: 7.60
- compound: "COC(=O)C1=C(C)NC(=O)N(C(=O)NCCCN2CCN(c3ccc(C(C)=O)cc3)CC2)C1c1ccc(F)c(F)c1 (centres undefined)"
  pKi: 5.89
- compound: "COC(=O)C1=C(C)NC(=O)N(C(=O)NCCCN2CCN(c3ccccc3Cl)CC2)C1c1ccc(F)c(F)c1 (centres undefined)"
  pKi: 7.82

Qu. Give pKi for the following compound: COC(=O)C1=C(C)NC(=O)N(C(=O)NCCCN2CCN(c3ccccc3[N+](=O)[O-])C[C@H]2C)C1c1ccc(F)c(F)c1 (some centres undefined)
Ans. 7.89

Qu. Give pKi for the following compound: COC(=O)C1=C(C)NC(=O)N(C(=O)NCCCN2CCN(c3ccccc3OC)CC2)C1c1ccc(F)c(F)c1 (centres undefined)
Ans. 7.74

Qu. Give pKi for the following compound: COC(=O)C1=C(C)NC(=O)N(C(=O)NCCCN2CCN(c3ccccc3[N+](=O)[O-])CC2)C1c1ccc(F)c(F)c1 (centres undefined)
Ans. 7.64

Qu. Give pKi for the following compound: COC(=O)C1=C(C)NC(=O)N(C(=O)NCCCN2CCN(c3cccc([N+](=O)[O-])c3)CC2)C1c1ccc(F)c(F)c1 (centres undefined)
Ans. 6.82
